Can you tell me IC50 for the items I'm about to list?
tested on: HT29 cells; assay: Necroptosis assay in HT29 cells (TNF-α, Smac mimetic, z-VAD; cell viability); type: cell-based; conditions: Homo sapiens, HT-29; TNF-α (40 ng/mL), Smacmimetic (100 nM), z-VAD (20 μM), 48 hours
Hi! Could you send only the number? It should be in nM, unit omitted.

Find the measured IC50 of CC(C)(C)OC(=O)Nc1nc2ccc(-c3cnc4c(c3)N(C(=O)OC3CCOCC3)CCO4)cc2s1 and report it.
26

Find the measured IC50 of CNCC(C)OC(=O)N1CCc2ncc(-c3ccc4nc(NC(=O)C5CC5)sc4c3)cc21 (centres unmarked) and report it.
16

Find the measured IC50 of O=C(Nc1cn2nc(-c3cnc4c(c3)N(C(=O)OC3CCOCC3)CC4)ccc2n1)C1CC1 and report it.
17

Find the measured IC50 of CC(=O)Nc1nc2ccc(-c3cnc4c(c3)N(C(=O)CC(C)(C)C)CCO4)cc2s1 and report it.
186

Find the measured IC50 of O=C(Nc1cn2nc(-c3cnc4c(c3)N(C(=O)OC3CCCCC3)CCO4)ccc2n1)C1CC1 and report it.
1.3

Find the measured IC50 of CC(C)(C)OC(=O)Nc1cn2cc(-c3cnc4c(c3)N(C(=O)OC3CCCCC3)CCO4)ccc2n1 and report it.
5

Find the measured IC50 of CC(=O)Nc1nc2ccc(-c3cnc4c(c3)N(C(=O)OC3CCCCC3)CCN4C)cc2s1 and report it.
13

Find the measured IC50 of CC(=O)Nc1nc2ccc(-c3cnc4c(c3)N(C(=O)OC3CCOCC3)CCO4)cc2s1 and report it.
20

Find the measured IC50 of O=C(Nc1nc2ccc(-c3cnc4c(c3)N(C(=O)OC3CCOCC3)CCN4)cc2s1)C1CC1 and report it.
38

Find the measured IC50 of O=C(Nc1nc2ccc(-c3cnc4c(c3)N(C(=O)OC3CCOCC3)CCO4)nc2s1)C1CC1 and report it.
36

Find the measured IC50 of CNC(=O)Nc1nc2ccc(-c3cnc4c(c3)N(C(=O)OC3CCOCC3)CC4)cc2s1 and report it.
1.3

Find the measured IC50 of O=C(Nc1nc2ccc(-c3cnc4c(c3)N(C(=O)OC3COC3)CC4)cc2s1)C1CC1 and report it.
6.7

Find the measured IC50 of CC(=O)Nc1nc2cc(-c3cnc4c(c3)N(C(=O)OC3CCCCC3)CCO4)ccn2n1 and report it.
42

Find the measured IC50 of CC(C)(C)OC(=O)Nc1cn2nc(-c3cnc4c(c3)N(C(=O)OC3CCOCC3)CCO4)ccc2n1 and report it.
114

Find the measured IC50 of CC(=O)Nc1nc2ccc(-c3cnc4c(c3)N(C(=O)OC3CCCCC3)CCN4C3CC3)cc2s1 and report it.
157

Find the measured IC50 of O=C(Nc1cn2cc(-c3cnc4c(c3)N(C(=O)OCC3CC3)CC4)ccc2n1)C1CC1 and report it.
1.7

Find the measured IC50 of O=C(Nc1nc2ccc(-c3cnc4c(c3)N(C(=O)OC3CCCCC3)CCO4)cc2s1)C1CC1 and report it.
0.5

Find the measured IC50 of CC(=O)Nc1nc2ccc(-c3cnc4c(c3)N(C(=O)OC3CCCCC3)CCO4)nc2s1 and report it.
8.5

Find the measured IC50 of CC(=O)Nc1nc2ccc(-c3cnc4c(c3)N(C(=O)NC3CCCCC3)CCO4)cc2s1 and report it.
39

Find the measured IC50 of CC(=O)Nc1nc2ccc(-c3cnc4c(c3)N(C(=O)OC3CCCCCC3)CCO4)cc2s1 and report it.
3.2

Find the measured IC50 of O=C(Nc1nc2ccc(-c3cnc4c(c3)N(C(=O)OCC3CC3)CC4)nc2s1)C1CC1 and report it.
2.4

Find the measured IC50 of CC(=O)Nc1nc2ccc(-c3cnc4c(c3)N(C(=O)OC3CCCCC3)CCN4)cc2s1 and report it.
24

Find the measured IC50 of O=C(Nc1nc2ccc(-c3cnc4c(c3)N(C(=O)OC3CCOCC3)CC4)cc2s1)C1CC1 and report it.
2

Find the measured IC50 of O=C1CCn2c(nc3ccc(-c4cnc5c(c4)N(C(=O)OC4CCCCC4)CCO5)cc32)N1 and report it.
15

Find the measured IC50 of CC(=O)Nc1nc2ccc(-c3cnc4c(c3)N(C(=O)OC3CCOCC3)CCN4C)cc2s1 and report it.
95

Find the measured IC50 of CC(=O)Nc1cn2nc(-c3cnc4c(c3)N(C(=O)OC3CCOCC3)CC4)ccc2n1 and report it.
600

Find the measured IC50 of O=C(Nc1nc2ccc(-c3cnc4c(c3)N(C(=O)CC3CCOCC3)CC4)nc2s1)C1CC1 and report it.
25

Find the measured IC50 of O=C(Nc1nc2ccc(-c3cnc4c(c3)N(C(=O)OC3CCOCC3)CC4)nc2s1)C1CC1 and report it.
7

Find the measured IC50 of Nc1nc2ccc(-c3cnc4c(c3)N(C(=O)OC3CCCCC3)CCO4)cc2s1 and report it.
11

Find the measured IC50 of CCN1CCN(C(=O)OC2CCCCC2)c2cc(-c3ccc4nc(NC(C)=O)sc4c3)cnc21 and report it.
70

Find the measured IC50 of CC(=O)Nc1nc2ccc(-c3cnc4c(c3)N(C(=O)OC3CCCCC3)CC4)cc2s1 and report it.
5

Find the measured IC50 of CC(=O)Nc1nc2ccc(-c3cnc4c(c3)N(C(=O)CC3CCCCC3)CCO4)cc2s1 and report it.
27

###

Can you tell me log10(IC50) for the items I'm about to list?
System: HT29 cells
Assay: Necroptosis assay in HT29 cells (TNF-α, Smac mimetic, z-VAD; cell viability)
Type: cell-based
Details: Homo sapiens, HT-29; TNF-α (40 ng/mL), Smacmimetic (100 nM), z-VAD (20 μM), 48 hours
Method: Human colon cancer HT29 cells were used in a necroptosis assay. For this assay, HT29 cells were added to 96-well plates and then were pre-treated with 10 μM of the test compound for one hour. Then the cells were treated with TNF-α (40 ng/mL), Smacmimetic (100 nM) and z-VAD (20 μM) for 48 hours, and the viability of cells was quantified. […] In Table 2, (1) “ND” indicates “not detected;” (2) Explanation for inhibition %: Taking Compound B14 as an example, its inhibition % was 30% (50 nM). […]
Units before log transform: nM; reported quantity: IC50; transform: log10.

Find the measured log10(IC50) of CC(=O)Nc1nc2ccc(-c3cnc4c(c3)N(C(=O)OC3CCOCC3)CC4)cc2s1 [Compound B53] and report it.
0.67

Find the measured log10(IC50) of O=C(Nc1nc2ccc(-c3cnc4c(c3)N(C(=O)OCC3CC3)CC4)cc2s1)C1CC1 [Compound B66] and report it.
-0.41

Find the measured log10(IC50) of O=C1Cn2c(nc3ccc(-c4cnc5c(c4)N(C(=O)OC4CCCCC4)CCO5)cc32)N1 [Compound B34] and report it.
3.36

Find the measured log10(IC50) of CC(=O)Nc1nc2ccc(-c3cnc4c(c3)N(C(=O)OC3CCCCC3)CCC4)cc2s1 [Compound B48] and report it.
0.38

Find the measured log10(IC50) of O=C(Nc1nc2ccc(-c3cnc4c(c3)N(C(=O)CC3CCOCC3)CC4)cc2s1)C1CC1 [Compound B62] and report it.
0.28

Find the measured log10(IC50) of CC(=O)Nc1cn2cc(-c3cnc4c(c3)N(C(=O)OC3CCOCC3)CC4)ccc2n1 [Compound B55] and report it.
1.69

Find the measured log10(IC50) of O=C(Nc1nc2ccc(-c3cnc4c(c3)N(C(=O)OC3CCC(F)(F)CC3)CC4)cc2s1)C1CC1 [Compound B70] and report it.
0.08

Find the measured log10(IC50) of Nc1nc2ccc(-c3cnc4c(c3)N(C(=O)OC3CCCCC3)CCO4)cn2n1 [Compound B6] and report it.
1.95

Find the measured log10(IC50) of CN1CCC(OC(=O)N2CCc3ncc(-c4ccc5nc(NC(=O)C6CC6)sc5c4)cc32)CC1 [Compound B68] and report it.
1.48

Find the measured log10(IC50) of CC(=O)Nc1nc2ccc(-c3cnc4c(c3)N(C(=O)OC3CCCCC3)CC(=O)N4)cc2s1 [Compound B39] and report it.
3.43

Find the measured log10(IC50) of Nc1nc2cc(-c3cnc4c(c3)N(C(=O)OC3CCCCC3)CCO4)ccn2n1 [Compound B4] and report it.
1.95

Find the measured log10(IC50) of CC(=O)Nc1nc2ccc(-c3cnc4c(c3)N(C(=O)CC3CCOCC3)CCO4)cc2s1 [Compound B36] and report it.
2.72

Find the measured log10(IC50) of Nc1cn2nc(-c3cnc4c(c3)N(C(=O)OC3CCOCC3)CCO4)ccc2n1 [Compound B23] and report it.
2.17

Find the measured log10(IC50) of CC(=O)Nc1nc2ccc(-c3cnc4c(c3)N(C(=O)OC3CCOCC3)CCC4)cc2s1 [Compound B49] and report it.
1.06

Find the measured log10(IC50) of CC(C)OC(=O)N1CCc2ncc(-c3ccc4nc(NC(=O)C5CC5)sc4c3)cc21 [Compound B65] and report it.
0.51

Find the measured log10(IC50) of O=C(Nc1cn2cc(-c3cnc4c(c3)N(C(=O)OC3CCOCC3)CCO4)ccc2n1)C1CC1 [Compound B19] and report it.
1.30
